Each record here notes measured abundance fitness.
B1: Homeobox protein cut-like 1, residues 941 to 1008; numbered along this chain, P39880 (parent)
chain: QEVDTIELTRQVKEKLAKNGICQRIFGEKVLGLSQGSVSDMLSRPKPWSKLTQKGREPFIRMQLWLNG

Variants of: B1
Experiment: abundance fitness (aPCA) (normalised: wild type 0, dead -1); higher = more abundant; growth selection in yeast, the domain comes from the species named
Settings: Homo sapiens

>  <BIOSEQUENCE>
QEVDTIELTRQVKEKLANNGICQRIFGEKVLGLSQGSVSDMLSRPKPWSKLTQKGREPFIRMQLWLNG [K18N]

>  <abundance fitness>
-0.051

$$$$
>  <BIOSEQUENCE>
QEDDTIELTRQVKEKLAKNGICQRIFGEKVLGLSQGSVSDMLSRPKPWSKLTQKGREPFIRMQLWLNG [V3D]

>  <abundance fitness>
-0.174

$$$$
>  <BIOSEQUENCE>
QEVDTIELTRQVKEKLAKNGICQRIFGEKVLGLSQGSVSDMLSRPKPWSDLTQKGREPFIRMQLWLNG [K50D]

>  <abundance fitness>
0.041

$$$$
>  <BIOSEQUENCE>
QEVDTIELTRQVKEKLAKNGICQCIFGEKVLGLSQGSVSDMLSRPKPWSKLTQKGREPFIRMQLWLNG [R24C]

>  <abundance fitness>
-0.22

$$$$
